Literature IC50 values, system: Fibroblast growth factor receptor 2 (Homo sapiens).

| molecule | measurement-name | recorded-value |
| --- | --- | --- |
| C=CC(=O)NCc1cc2c(cn1)CN(c1c(F)c(OC)cc(OC)c1F)C(=O)N2c1ccncc1 | IC50 | > 200 nM |

Short answer for COc1cc(OC)c(F)c(N2Cc3cnc(NCCN4CCOCC4)cc3C3(CC3)C2=O)c1F : IC50 was < 100 nM

Short answer for C=CC(=O)Nc1cnn(C[C@@H]2CCCO2)c1-c1cc2c(cn1)CN(c1c(F)c(OC)cc(OC)c1F)C(=O)C21CC1 : IC50 was > 200 nM
